Reported Kd values for the following binders.
- system: WT RBD (SARS-CoV-2 Wuhan-Hu-1 spike receptor binding domain) (SARS-CoV-2 (Wuhan-Hu-1), UniProt P0DTC2)
- protocol_text: BLI
- particulars: both partners purified

// Input: C971 (antibody, V domains shown, source: 293-6E cells, transfected, purified (Protein G Sepharose)) VH: EVQLVESGGGLVKPGGSLRLSCAASGFTFNNAWMTWVRQAPGKGLEWVGRIKSKTDGGTTDYGTPAKGRFTISRDDSKNTLYLQMKSLRTEDTAVYYCTTVDVQGIWELLENDAFDIWGQGTMVTVSS VL: EIVLTQSPGTLSLSPGERATLSCRATQAISSTYLAWYQQKPGQAPRLLIYGAFSRAPGIPDRFSGSGSETDFTLTISRLEPEDFAVYYCQQSDRSPFTFGPGTKVDIK . Output its Kd only.
0.949 nM
